- Tested on: CYP74C44 (ShHPL)
- method-description: UV absorbance decrease at […] nm
- Format: biochemical, Sturnira hondurensis
- condition-notes: Na phosphate buffer pH 7.0, 25 °C, 5 to 150 μM substrate
Short version: Km at least 30 µM is condition met, less is condition not met.

Dear colleague, could you confirm whether CC/C=C\C/C=C\C=C\[C@H](CCCCCCCC(=O)O)OO has Km at or above 30 µM?
condition not met

Answer whether Km of CCCCC[C@@H](/C=C/C=C\CCCCCCCC(=O)O)OO is greater than or equal to 30 µM.
condition met

Textbook exercise: given the entry CC/C=C\C[C@@H](/C=C/C=C\C/C=C\C/C=C\CCCC(=O)O)OO , state whether its Km is greater than or equal to 30 µM.
condition not met

Does the reported Km for CC/C=C\C[C@@H](/C=C/C=C\CCCCCCCC(=O)O)OO fall at or above the 30 µM mark?
condition not met

Reported Km at or above 30 µM? CCCCC/C=C\C=C\[C@H](CCCCCCCC(=O)O)OO
condition met
